Would you kindly list binding signal for each of these sequences?
# Tested Target: CPSF6 (Homo sapiens)
# Sequence (Q16630 60-180): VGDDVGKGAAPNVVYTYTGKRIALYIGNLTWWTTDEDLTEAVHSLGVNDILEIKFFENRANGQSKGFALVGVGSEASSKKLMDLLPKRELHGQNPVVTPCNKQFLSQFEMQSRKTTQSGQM
# Experimental Protocol: protein domain microarray probed with biotinylated miRNA; Domain array: 20 mM Tris-HCl pH 7.4, 200 mM KCl, 0.2 mM EDTA, 0.05% NP40, 2 ug/ul heparin, overnight 4 C. ORF array: PBS pH 7.0 with RNase inhibitor, 100 ng RNA; high values mean tight binding
# Cond: ssRNA
The number alone won't do; follow it with the unit.

These recorded examples may help you get a feel for the data.
1) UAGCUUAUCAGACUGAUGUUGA 36.4 fluorescence intensity
2) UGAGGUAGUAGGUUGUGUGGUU 32.1 fluorescence intensity
3) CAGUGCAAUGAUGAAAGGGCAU 39.2 fluorescence intensity
4) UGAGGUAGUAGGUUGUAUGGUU 26.1 fluorescence intensity

Moving on to the next sequence.
I'm curious: which binding signal was measured for `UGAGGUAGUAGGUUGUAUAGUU` tested on CPSF6 (Homo sapiens)?
23 fluorescence intensity

* * *

# Tested Target: RBMXL3 (Homo sapiens, UniProt Q8N7X1)
# Sequence (Q8N7X1 1-110): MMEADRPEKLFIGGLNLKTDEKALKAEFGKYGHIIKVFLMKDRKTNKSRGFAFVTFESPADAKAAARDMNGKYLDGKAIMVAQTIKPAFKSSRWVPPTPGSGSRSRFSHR
# Experimental Protocol: protein domain microarray probed with biotinylated miRNA; Domain array: 20 mM Tris-HCl pH 7.4, 200 mM KCl, 0.2 mM EDTA, 0.05% NP40, 2 ug/ul heparin, overnight 4 C. ORF array: PBS pH 7.0 with RNase inhibitor, 100 ng RNA; high values mean tight binding
# Cond: ssRNA
Measured Parameter: binding signal (fluorescence intensity)
Give bare numbers, in fluorescence intensity.

1) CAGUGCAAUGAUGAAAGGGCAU 1130
2) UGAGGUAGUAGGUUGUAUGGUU 1320

Fill in binding signal for each of the 2 sequences listed.
1. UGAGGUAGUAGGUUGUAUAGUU
2. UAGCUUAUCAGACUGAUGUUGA

500
308

* * *

# Tested Target: IGF2BP2(3-4) (Homo sapiens, UniProt Q9Y6M1)
# Sequence (Q9Y6M1 410-599): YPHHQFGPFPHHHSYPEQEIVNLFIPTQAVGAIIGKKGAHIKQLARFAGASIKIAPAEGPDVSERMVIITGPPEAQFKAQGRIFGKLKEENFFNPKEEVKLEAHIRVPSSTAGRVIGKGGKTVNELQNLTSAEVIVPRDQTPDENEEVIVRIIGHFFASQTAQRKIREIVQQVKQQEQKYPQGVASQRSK
# Experimental Protocol: protein domain microarray probed with biotinylated miRNA; Domain array: 20 mM Tris-HCl pH 7.4, 200 mM KCl, 0.2 mM EDTA, 0.05% NP40, 2 ug/ul heparin, overnight 4 C. ORF array: PBS pH 7.0 with RNase inhibitor, 100 ng RNA; high values mean tight binding
# Cond: ssRNA
Would you kindly list binding signal for each of these sequences?
Numbers only, in fluorescence intensity.

1. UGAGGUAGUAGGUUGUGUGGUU 1420
2. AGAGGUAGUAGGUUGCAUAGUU 1780
3. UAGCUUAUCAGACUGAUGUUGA 59.8
4. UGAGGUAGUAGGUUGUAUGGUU 1720

Requested read-out: binding signal. Entry: `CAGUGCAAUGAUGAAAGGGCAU`
904

* * *

# Tested Target: NOVA1(1-2) (Homo sapiens, UniProt P51513)
# Chain: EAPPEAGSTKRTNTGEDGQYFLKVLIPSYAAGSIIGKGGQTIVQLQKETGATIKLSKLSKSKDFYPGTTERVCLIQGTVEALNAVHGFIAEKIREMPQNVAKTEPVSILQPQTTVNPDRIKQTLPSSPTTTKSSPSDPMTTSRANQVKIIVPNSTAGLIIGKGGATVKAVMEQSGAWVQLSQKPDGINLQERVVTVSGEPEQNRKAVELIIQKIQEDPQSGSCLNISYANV
# Experimental Protocol: protein domain microarray probed with biotinylated miRNA; Domain array: 20 mM Tris-HCl pH 7.4, 200 mM KCl, 0.2 mM EDTA, 0.05% NP40, 2 ug/ul heparin, overnight 4 C. ORF array: PBS pH 7.0 with RNase inhibitor, 100 ng RNA; high values mean tight binding
# Cond: ssRNA
Would you kindly list binding signal for each of these sequences?
Numbers only, in fluorescence intensity.

These recorded examples may help you get a feel for the data.
1. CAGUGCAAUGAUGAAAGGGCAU 261
2. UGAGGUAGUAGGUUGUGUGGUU 134
3. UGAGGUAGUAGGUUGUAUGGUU 90.1

Requested read-out: binding signal. Entry: `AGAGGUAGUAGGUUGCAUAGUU`
318

* * *

# Tested Target: TIAL1 (Homo sapiens, UniProt Q01085)
# Sequence: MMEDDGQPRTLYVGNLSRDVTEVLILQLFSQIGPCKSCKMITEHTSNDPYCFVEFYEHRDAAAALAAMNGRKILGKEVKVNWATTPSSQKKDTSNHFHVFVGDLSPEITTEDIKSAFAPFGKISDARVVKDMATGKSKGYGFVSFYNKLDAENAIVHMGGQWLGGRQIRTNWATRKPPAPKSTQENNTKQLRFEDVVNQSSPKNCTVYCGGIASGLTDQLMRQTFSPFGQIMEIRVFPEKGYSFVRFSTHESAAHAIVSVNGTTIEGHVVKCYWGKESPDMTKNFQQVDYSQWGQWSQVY
# Experimental Protocol: protein domain microarray probed with biotinylated miRNA; Domain array: 20 mM Tris-HCl pH 7.4, 200 mM KCl, 0.2 mM EDTA, 0.05% NP40, 2 ug/ul heparin, overnight 4 C. ORF array: PBS pH 7.0 with RNase inhibitor, 100 ng RNA; high values mean tight binding
# Cond: ssRNA
Measured Parameter: binding signal (fluorescence intensity)
Answers are plain numbers, in fluorescence intensity.

1) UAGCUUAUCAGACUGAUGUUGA 684
2) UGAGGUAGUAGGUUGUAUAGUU 437
3) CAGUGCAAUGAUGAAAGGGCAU 523

Requested read-out: binding signal. Entry: `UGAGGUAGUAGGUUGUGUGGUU`
740

* * *

# Tested Target: IGF2BP3(3-4) (Homo sapiens, UniProt O00425)
# Sequence (O00425 387-579): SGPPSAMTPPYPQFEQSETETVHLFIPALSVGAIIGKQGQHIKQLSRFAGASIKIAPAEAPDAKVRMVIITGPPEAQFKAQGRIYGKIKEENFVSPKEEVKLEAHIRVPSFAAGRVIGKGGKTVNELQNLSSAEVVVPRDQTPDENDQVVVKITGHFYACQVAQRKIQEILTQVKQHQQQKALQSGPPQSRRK
# Experimental Protocol: protein domain microarray probed with biotinylated miRNA; Domain array: 20 mM Tris-HCl pH 7.4, 200 mM KCl, 0.2 mM EDTA, 0.05% NP40, 2 ug/ul heparin, overnight 4 C. ORF array: PBS pH 7.0 with RNase inhibitor, 100 ng RNA; high values mean tight binding
# Cond: ssRNA
Measured Parameter: binding signal (fluorescence intensity)
Answers are plain numbers, in fluorescence intensity.

These recorded examples may help you get a feel for the data.
1. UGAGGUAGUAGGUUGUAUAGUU 29.1
2. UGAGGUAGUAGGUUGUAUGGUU 96.1
3. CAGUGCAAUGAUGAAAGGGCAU 53.6

Moving on to the next sequence.
Requested read-out: binding signal. Entry: `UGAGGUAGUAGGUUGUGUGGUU`
169

* * *

# Tested Target: TRSPAP1 (Homo sapiens)
# Sequence: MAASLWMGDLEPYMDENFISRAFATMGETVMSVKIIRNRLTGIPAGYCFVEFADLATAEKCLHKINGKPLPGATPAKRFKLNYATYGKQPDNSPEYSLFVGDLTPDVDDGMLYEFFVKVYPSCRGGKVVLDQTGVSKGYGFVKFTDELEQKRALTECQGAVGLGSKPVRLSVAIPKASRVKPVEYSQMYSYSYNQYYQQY
# Experimental Protocol: protein domain microarray probed with biotinylated miRNA; Domain array: 20 mM Tris-HCl pH 7.4, 200 mM KCl, 0.2 mM EDTA, 0.05% NP40, 2 ug/ul heparin, overnight 4 C. ORF array: PBS pH 7.0 with RNase inhibitor, 100 ng RNA; high values mean tight binding
# Cond: ssRNA
Class TRUE: binding signal at least 80 fluorescence intensity. Class FALSE: binding signal below 80 fluorescence intensity.

Look over these answered cases.
1) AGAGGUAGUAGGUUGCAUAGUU TRUE
2) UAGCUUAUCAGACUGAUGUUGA FALSE

Does `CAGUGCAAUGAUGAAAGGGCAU` have a reported binding signal of at least 80 fluorescence intensity?
TRUE

Does `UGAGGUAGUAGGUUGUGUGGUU` have a reported binding signal of at least 80 fluorescence intensity?
TRUE

* * *

# Tested Target: hnRNP-D-like (Homo sapiens, UniProt O14979)
# Sequence: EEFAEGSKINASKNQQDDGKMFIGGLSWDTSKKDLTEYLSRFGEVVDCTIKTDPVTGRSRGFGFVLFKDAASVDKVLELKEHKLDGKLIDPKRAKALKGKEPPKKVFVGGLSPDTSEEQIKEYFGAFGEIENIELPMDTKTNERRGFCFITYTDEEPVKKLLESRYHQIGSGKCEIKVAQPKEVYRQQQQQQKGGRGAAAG
# Experimental Protocol: protein domain microarray probed with biotinylated miRNA; Domain array: 20 mM Tris-HCl pH 7.4, 200 mM KCl, 0.2 mM EDTA, 0.05% NP40, 2 ug/ul heparin, overnight 4 C. ORF array: PBS pH 7.0 with RNase inhibitor, 100 ng RNA; high values mean tight binding
# Cond: ssRNA
Measured Parameter: binding signal (fluorescence intensity)
One number for each entry, in fluorescence intensity.

These recorded examples may help you get a feel for the data.
1) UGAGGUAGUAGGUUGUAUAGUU 288
2) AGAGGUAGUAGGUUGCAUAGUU 601
3) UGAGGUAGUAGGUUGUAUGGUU 741

Moving on to the next sequence.
Requested read-out: binding signal. Entry: `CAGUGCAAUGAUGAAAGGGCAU`
250
